The reported numbers originate from paper PMC10786891.

- experimental target: T1, EsCas13d, nuclease-dead (Eubacterium siraeum, UniProt B0MS50, R295A;H300A;R849A;H854A)
- T1 sequence: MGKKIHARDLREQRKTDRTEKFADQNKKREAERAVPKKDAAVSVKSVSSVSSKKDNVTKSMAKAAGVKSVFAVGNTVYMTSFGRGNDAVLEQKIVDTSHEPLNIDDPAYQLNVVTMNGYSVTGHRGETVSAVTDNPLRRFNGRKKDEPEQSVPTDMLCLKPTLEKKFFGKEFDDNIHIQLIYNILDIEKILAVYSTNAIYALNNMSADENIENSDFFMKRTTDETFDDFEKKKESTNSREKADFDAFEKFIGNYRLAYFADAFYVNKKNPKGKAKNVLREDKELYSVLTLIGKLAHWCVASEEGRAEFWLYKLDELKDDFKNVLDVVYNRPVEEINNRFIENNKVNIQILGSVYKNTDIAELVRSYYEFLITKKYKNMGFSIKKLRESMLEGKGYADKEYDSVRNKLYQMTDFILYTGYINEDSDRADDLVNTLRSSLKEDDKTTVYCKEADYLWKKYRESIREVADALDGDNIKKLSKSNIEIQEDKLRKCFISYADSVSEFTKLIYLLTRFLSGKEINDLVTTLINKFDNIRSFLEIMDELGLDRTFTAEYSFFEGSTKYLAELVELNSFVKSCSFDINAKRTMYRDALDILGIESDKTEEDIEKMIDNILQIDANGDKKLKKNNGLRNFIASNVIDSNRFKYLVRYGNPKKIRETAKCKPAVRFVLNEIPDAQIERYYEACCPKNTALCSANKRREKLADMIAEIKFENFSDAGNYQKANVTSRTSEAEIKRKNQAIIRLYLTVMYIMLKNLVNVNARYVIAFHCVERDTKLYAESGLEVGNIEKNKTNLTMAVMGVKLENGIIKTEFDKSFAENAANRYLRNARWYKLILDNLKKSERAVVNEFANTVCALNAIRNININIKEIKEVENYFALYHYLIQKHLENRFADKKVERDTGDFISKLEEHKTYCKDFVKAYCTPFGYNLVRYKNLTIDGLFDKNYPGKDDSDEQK
- experiment: crRNA (strand 1, pre-loaded); Mg2+; 40 mM Tris-HCl pH 7.5, 150 mM NaCl, 6 mM MgCl2, 1 mM DTT, 0.1% Tween-20, 0.2 mg/ml BSA; 25 C; 10 min per concentration, then washed
- cond: tags: His6-TwinStrep-SUMO cleaved; N-terminal SNAP kept (SNAP-Surface 488); label: 3' end held by stalled T7 RNA polymerase
pKd: −log10 of the molar value.
Below is a list of entries, each paired with its recorded pKd value.
value type: pKd

[[record]]
binder = "target 1 MT 5'PFS UUG 3'PFS CAU (mixed) RNA 1: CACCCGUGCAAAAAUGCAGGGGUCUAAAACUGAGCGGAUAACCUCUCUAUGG RNA 2: GGGAAUGGAUCCACAUCUACGAAUUCUUGCCAUAGAGAGGUUAUCCGCUCACAUAGAUCGGAAGAGCACACGU"
value = 7.39

[[record]]
binder = "target 1 insG 3' of 8,insA 3' of 5 (mixed) RNA 1: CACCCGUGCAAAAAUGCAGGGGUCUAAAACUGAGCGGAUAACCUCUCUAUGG RNA 2: GGGAAUGGAUCCACAUCUACGAAUUCGUACCAUAGAGAGGUUAUGCCGACUCACCGAGAUCGGAAGAGCACACGU"
value = 7.94

[[record]]
binder = "target 1 insG 3' of 20,insC 3' of 19 (mixed) RNA 1: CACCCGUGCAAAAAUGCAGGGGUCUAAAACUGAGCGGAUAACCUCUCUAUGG RNA 2: GGGAAUGGAUCCACAUCUACGAAUUCGUACCAGUCAGAGAGGUUAUCCGCUCACCGAGAUCGGAAGAGCACACGU"
value = 7.23

[[record]]
binder = "target 1 insC 3' of 8,insA 3' of 5 (mixed) RNA 1: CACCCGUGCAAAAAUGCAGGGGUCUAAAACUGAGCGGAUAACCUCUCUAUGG RNA 2: GGGAAUGGAUCCACAUCUACGAAUUCGUACCAUAGAGAGGUUAUCCCGACUCACCGAGAUCGGAAGAGCACACGU"
value = 7.88

[[record]]
binder = "target 1 insU 3' of 14,insC 3' of 1 (mixed) RNA 1: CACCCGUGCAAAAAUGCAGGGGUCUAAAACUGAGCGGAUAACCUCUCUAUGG RNA 2: GGGAAUGGAUCCACAUCUACGAAUUCGUACCAUAGAGAUGGUUAUCCGCUCACCCGAGAUCGGAAGAGCACACGU"
value = 7.38

[[record]]
binder = "target 1 U3G (mixed) RNA 1: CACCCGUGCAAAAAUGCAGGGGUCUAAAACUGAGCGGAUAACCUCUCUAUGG RNA 2: GGGAAUGGAUCCACAUCUACGAAUUCGUACCAUAGAGAGGUUAUCCGCGCACCGAGAUCGGAAGAGCACACGU"
value = 7.95

[[record]]
binder = "target 1 insC 3' of 11,insG 3' of 2 (mixed) RNA 1: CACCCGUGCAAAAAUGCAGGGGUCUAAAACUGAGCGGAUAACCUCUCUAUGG RNA 2: GGGAAUGGAUCCACAUCUACGAAUUCGUACCAUAGAGAGGUCUAUCCGCUCGACCGAGAUCGGAAGAGCACACGU"
value = 7.38

[[record]]
binder = "target 1 insC 3' of 20,insC 3' of 18 (mixed) RNA 1: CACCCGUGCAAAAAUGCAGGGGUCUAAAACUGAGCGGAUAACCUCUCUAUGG RNA 2: GGGAAUGGAUCCACAUCUACGAAUUCGUACCACUACGAGAGGUUAUCCGCUCACCGAGAUCGGAAGAGCACACGU"
value = 8.21

